Kindly state MFI for each of the entries shown.
- system tested: T1, human wild-type EGFR protein on the cell surface (human, UniProt P00533 25-1210)
- T1 construct: whole, on cells; Endogenous on A431, HEB, U87MG cells and normal human primary hepatocytes; transfected on CHOk1-EGFR cells; The cell is named under assay; also called A431; HEB
- assay details: FACS on normal human primary hepatocytes
Give your result as the value with the unit written after it.

// known answers, use as guide
>>> value_observed("Humanized antibody h75G7C6-15 (antibody, human IgG1, V domains shown, also called VH-g2/VL-g2) VH: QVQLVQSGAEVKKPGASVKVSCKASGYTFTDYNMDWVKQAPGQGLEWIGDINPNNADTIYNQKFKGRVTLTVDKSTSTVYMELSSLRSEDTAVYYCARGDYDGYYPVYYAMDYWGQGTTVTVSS VL: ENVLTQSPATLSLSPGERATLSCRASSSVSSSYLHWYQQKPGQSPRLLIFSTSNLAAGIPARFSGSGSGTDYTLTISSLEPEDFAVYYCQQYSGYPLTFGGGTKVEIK")
"287 MFI"
>>> value_observed("Humanized antibody h75G7C6-13 (antibody, human IgG1, V domains shown, also called VH-g2/VL-g0) VH: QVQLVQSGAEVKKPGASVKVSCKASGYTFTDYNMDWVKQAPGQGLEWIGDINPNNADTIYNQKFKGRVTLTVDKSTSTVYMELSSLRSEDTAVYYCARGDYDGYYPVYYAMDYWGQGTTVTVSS VL: EIVLTQSPATLSLSPGERATLSCRASSSVSSSYLHWYQQKPGQAPRLLIYSTSNLAAGIPARFSGSGSGTDFTLTISSLEPEDFAVYYCQQYSGYPLTFGGGTKVEIK")
"256 MFI"
>>> value_observed("Humanized antibody h75G7C6-16 (antibody, human IgG1, V domains shown, also called VH-g2/VL-g3) VH: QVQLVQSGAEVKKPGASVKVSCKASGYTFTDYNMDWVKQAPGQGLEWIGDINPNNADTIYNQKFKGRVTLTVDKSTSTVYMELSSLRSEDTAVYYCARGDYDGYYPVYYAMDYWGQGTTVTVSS VL: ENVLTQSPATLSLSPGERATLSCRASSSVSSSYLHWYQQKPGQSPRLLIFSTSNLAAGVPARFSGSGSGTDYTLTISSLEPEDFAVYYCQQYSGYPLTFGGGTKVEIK")
"269 MFI"
>>> value_observed("Humanized antibody h75G7C6-9 (antibody, human IgG1, V domains shown, also called VH-g1/VL-g0) VH: QVQLVQSGAEVKKPGASVKVSCKASGYTFTDYNMDWVRQAPGQGLEWIGDINPNNADTIYNQKFKGRVTLTVDTSTSTVYMELSSLRSEDTAVYYCARGDYDGYYPVYYAMDYWGQGTTVTVSS VL: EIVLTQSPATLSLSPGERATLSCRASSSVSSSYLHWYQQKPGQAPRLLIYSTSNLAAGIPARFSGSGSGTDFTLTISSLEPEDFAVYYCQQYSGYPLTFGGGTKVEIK")
"238 MFI"

Next up:
GET /values?readout=MFI&item= Humanized antibody h75G7C6-14 (antibody, human IgG1, V domains shown, also called VH-g2/VL-g1) VH: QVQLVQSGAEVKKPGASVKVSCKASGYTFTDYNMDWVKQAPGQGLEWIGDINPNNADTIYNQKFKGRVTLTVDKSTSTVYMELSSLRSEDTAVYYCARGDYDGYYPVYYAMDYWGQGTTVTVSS VL: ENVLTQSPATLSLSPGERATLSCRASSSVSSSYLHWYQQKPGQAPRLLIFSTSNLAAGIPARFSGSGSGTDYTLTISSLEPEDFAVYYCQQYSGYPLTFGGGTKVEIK 248 MFI
